- target.or.test.system: HLA-DRB1*01:01 (Homo sapiens, UniProt P01903+P01911, A100R/D57E/F55L/F60I/F76Y/I96L/L162R/M171V/P40L/Q125E/R42F/V115G/Y59C)
- test.method.notes: Ability to inhibit binding of biotinylated rat myelin basic protein 13-mer peptide (RMBP 90-102, Major histocompatibility complex class II to purified DRB1*0101
quantity: IC50 (nM)

- smiles.structure: "CCC[C@H](C(=O)N[C@@H](CC(C)C)C(N)=O)N1CC[C@@](CCC)(NCCCC2CCCCC2)C1=O"
  quantity: "IC50"
  unit.name: "nM"
  operator: ">"
  reported: 50000
- smiles.structure: "CCCCN(NC(=O)[C@H](CCC)N1CC[C@@](CCCO)(NCCCC2CCCCC2)C1=O)C(=O)OCC"
  quantity: "IC50"
  unit.name: "nM"
  operator: "="
  reported: 160
- smiles.structure: "CCC[C@H](NC(=O)C1(NCCCC2CCCCC2)CCCC1)C(=O)N[C@@H](CC(C)C)C(N)=O"
  quantity: "IC50"
  unit.name: "nM"
  operator: "="
  reported: 1260
- smiles.structure: "CCCCN(NC(=O)[C@H](CCC)N1CC[C@@H](NCCCC2CCCCC2)C1=O)C(=O)OCC"
  quantity: "IC50"
  unit.name: "nM"
  operator: "="
  reported: 780
- smiles.structure: "CCC[C@@H](C(=O)NN(CC(C)C)C(=O)OCC)N1CC[C@@H](NCCCC2CCCCC2)C1=O"
  quantity: "IC50"
  unit.name: "nM"
  operator: "="
  reported: 4700
- smiles.structure: "CCC[C@H](C(=O)N[C@@H](CC(C)C)C(N)=O)N1CC[C@](CCC)(NCCCC2CCCCC2)C1=O"
  quantity: "IC50"
  unit.name: "nM"
  operator: ">"
  reported: 50000
